# testedOn: 5-Lipoxygenase (Rattus norvegicus, UniProt P12527)
# Sequence (P12527 whole entry): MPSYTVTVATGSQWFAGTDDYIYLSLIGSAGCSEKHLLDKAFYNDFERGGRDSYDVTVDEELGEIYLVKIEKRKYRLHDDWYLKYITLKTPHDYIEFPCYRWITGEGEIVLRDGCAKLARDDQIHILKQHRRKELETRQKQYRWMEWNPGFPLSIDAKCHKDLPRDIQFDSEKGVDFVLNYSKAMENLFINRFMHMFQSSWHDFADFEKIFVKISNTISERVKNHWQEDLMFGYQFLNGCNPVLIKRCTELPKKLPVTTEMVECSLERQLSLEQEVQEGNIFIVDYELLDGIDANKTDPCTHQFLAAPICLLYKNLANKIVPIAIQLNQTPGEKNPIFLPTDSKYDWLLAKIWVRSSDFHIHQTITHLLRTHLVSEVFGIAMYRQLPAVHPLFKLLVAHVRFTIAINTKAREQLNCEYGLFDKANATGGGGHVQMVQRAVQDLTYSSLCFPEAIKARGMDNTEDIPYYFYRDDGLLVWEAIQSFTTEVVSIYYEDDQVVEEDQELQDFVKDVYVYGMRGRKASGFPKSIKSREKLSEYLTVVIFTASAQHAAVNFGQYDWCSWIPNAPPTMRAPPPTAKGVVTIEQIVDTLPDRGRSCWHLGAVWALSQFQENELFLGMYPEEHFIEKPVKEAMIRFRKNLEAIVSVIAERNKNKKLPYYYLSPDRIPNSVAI
# assayInfo: ARBL whole cell 5-lipoxygenase assay (LTB4 formation, RBL-1 cells)
# reportedConditions: A23187 stimulated, LTB4 by RIA, read-out: ARBL IC50 for LTB4 inhibition
pIC50: −log10 of the molar value.

{"columns": ["moleculeSmiles", "testedOn", "pIC50"],
 "data": [
  ["Cc1cc(C(=O)c2cc(C(C)(C)C)c(O)c(C(C)(C)C)c2)no1", "5-Lipoxygenase (Rattus norvegicus, UniProt P12527)", 6.08]
]}

Data origin: patent US5234937A
